# Test system: 885512-296-R-J2-PDC complex spheroid viability;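 note: spheroids exposed to the compounds for one week; percent of tumor spheroid viability relative to DMSO vehicle control wells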
# test-name: Anticancer human tumor 885512-296-R-J2-PDC patient-derived breast carcinoma cell line growth inhibition [GQUAD]
# condition-summary: second compound 10 µM; first compound 1 µM; active compounds read low
observed-property: viability, T/C

compound	observed-property	measurement
C=CCn1c(=O)c2cnc(Nc3ccc(N4CCN(C)CC4)cc3)nc2n1-c1cccc(C(C)(C)O)n1 + CN(C)c1ccc(Nc2c3ccc(NC(=O)CCN4CCCC4)cc3nc3cc(NC(=O)CCN4CCCC4)ccc23)cc1	viability, T/C	5.57%
CC1COCCN1c1cc(C2(O)CC3CCC(C2)O3)c2cnn(-c3ccn[nH]3)c2n1 (stereo not given) + CN(C)c1ccc(Nc2c3ccc(NC(=O)CCN4CCCC4)cc3nc3cc(NC(=O)CCN4CCCC4)ccc23)cc1	viability, T/C	2.68%
CC(C)n1c(=O)n(C)c2cnc3cc(F)c(-c4ccc(OCCCN5CCCCC5)nc4)cc3c21 + Cc1[nH]c2ccc(F)cc2c1-c1nc2c3cccnc3c3ncccc3c2[nH]1	viability, T/C	2.18%
O=C(NO)c1cnc(N2CCN(S(=O)(=O)c3ccc4ccccc4c3)CC2)nc1 + Cc1cnc(CNC(=O)c2c(=O)c3ccc(N4CCCN(C)CC4)nc3n3c2sc2ccccc23)cn1	viability, T/C	0.12%
CCCS(=O)(=O)Nc1ccc(F)c(C(=O)c2c[nH]c3ncc(-c4ccc(Cl)cc4)cc23)c1F + Cc1cnc(CNC(=O)c2c(=O)c3ccc(N4CCCN(C)CC4)nc3n3c2sc2ccccc23)cn1	viability, T/C	0.17%

These measurements were taken from PubChem BioAssay AID2060490.
